Data provenance is patent US20250049885A1.

Assay: Live/Dead fluorescent staining of fibroblasts cultured on functionalized surfaces
Assay type: cell-based, human
Conditions: human; fibroblasts cultured on functionalized surface; read-out: Cell viability (Live/Dead)
Ends that are not written are not given here.
measured.parameter: viability (%)
Give bare numbers, in %.

### Prompt Using known records, supply viability for GAHWQFNALTVR [HABP, GAHWQFNALTVR]
### Response 98.9
